Target: Cytochrome P450 2C9 (Homo sapiens) (UniProt P11712)
Sequence (P11712 whole entry, looked up): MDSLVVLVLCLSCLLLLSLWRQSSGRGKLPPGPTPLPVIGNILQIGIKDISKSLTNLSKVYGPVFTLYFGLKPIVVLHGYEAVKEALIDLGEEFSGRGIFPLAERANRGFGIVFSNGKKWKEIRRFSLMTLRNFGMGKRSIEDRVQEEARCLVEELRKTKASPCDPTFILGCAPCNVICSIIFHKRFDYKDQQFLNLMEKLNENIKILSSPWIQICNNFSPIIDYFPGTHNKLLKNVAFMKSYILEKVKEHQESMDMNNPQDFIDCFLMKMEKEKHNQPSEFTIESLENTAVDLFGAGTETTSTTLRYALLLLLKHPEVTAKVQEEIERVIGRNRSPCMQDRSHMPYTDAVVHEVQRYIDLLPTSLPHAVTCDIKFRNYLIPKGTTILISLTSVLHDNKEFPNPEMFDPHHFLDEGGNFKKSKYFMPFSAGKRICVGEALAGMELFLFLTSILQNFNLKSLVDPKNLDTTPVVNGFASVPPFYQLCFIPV
Assay: Cytochrome P450 Family 2 Subfamily C Member 9 (CYP2C9) small molecule antagonists: luciferase reporter qHTS assay (AID 1671198); also: nearly all actives have a fitted effect of over 50% in size; also: potency is read from the fitted curve at half-maximal effect
Settings: P450-Glo CYP2C9 enzyme assay, luciferin luminescence; series mostly up to 115 µM
Excerpt: U.S. Tox21 Program National Center for Advancing Translational Sciences [NCATS] U.S. Environmental Protection Agency [EPA] National Institutes of Environmental Health Sciences [NIEHS] National Toxicology Program [NTP] U.S. Food and Drug Administration [FDA] […] The luciferin products formed are detected with a luciferin detection reagent, and the amount of light produced is proportional to CYP activity. […]
Inconclusive results are not listed. Activity calls are given as the source filed them. Calls follow the shape of the dose curve; as a rule, active = well fitted inhibition curve with a large enough effect in the repeat runs; inconclusive = weak or mixed curves; inactive = no such curve, though single readings can be large or run the other way.
measurement_type: Potency

[[record]]
molecule = "CC(C)NC(C)C"
assay_system = "Cytochrome P450 2C9 (Homo sapiens) (UniProt P11712)"
measurement_type = "Potency"
result = "inactive"

[[record]]
molecule = "CN(C)C(=O)Nc1ccc(Cl)cc1"
assay_system = "Cytochrome P450 2C9 (Homo sapiens) (UniProt P11712)"
measurement_type = "Potency"
result = "inactive"

[[record]]
molecule = "Nc1c(Cl)cc([N+](=O)[O-])cc1Cl"
assay_system = "Cytochrome P450 2C9 (Homo sapiens) (UniProt P11712)"
measurement_type = "Potency"
result = "inactive"

[[record]]
molecule = "CN(C)c1ccc(C(=O)c2ccc(N(C)C)cc2)cc1"
assay_system = "Cytochrome P450 2C9 (Homo sapiens) (UniProt P11712)"
measurement_type = "Potency"
result = "31.7 µM (active)"

[[record]]
molecule = "O=[N+]([O-])c1cccc2ccccc12"
assay_system = "Cytochrome P450 2C9 (Homo sapiens) (UniProt P11712)"
measurement_type = "Potency"
result = "inactive"

[[record]]
molecule = "Nn1cnnc1"
assay_system = "Cytochrome P450 2C9 (Homo sapiens) (UniProt P11712)"
measurement_type = "Potency"
result = "34.4 µM (active)"

[[record]]
molecule = "C1=Cc2cccc3cccc1c23"
assay_system = "Cytochrome P450 2C9 (Homo sapiens) (UniProt P11712)"
measurement_type = "Potency"
result = "inactive"

[[record]]
molecule = "CCC(C)c1cc([N+](=O)[O-])cc([N+](=O)[O-])c1O (stereo not drawn)"
assay_system = "Cytochrome P450 2C9 (Homo sapiens) (UniProt P11712)"
measurement_type = "Potency"
result = "inactive"


---

Assay: qHTS assay to identify aromatase inhibitors - cell viability counter screen (AID 743084);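 also: cells stimulated with testosterone during compound exposure; nearly all actives have a fitted effect of over 55% in size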
Conditions: MCF-7 aro ERE viability, CellTiter-Fluor, 24 h; series mostly up to 70.3 µM
Records with an inconclusive call do not appear. Active and inactive are the calls of the source. The call rests on the fitted dose curve; in most records, active means well fitted cell-killing curve with a large enough effect in the repeat runs; inconclusive means weak or mixed curves, or effect the other way; inactive means no such curve, though single readings can be large or run the other way.
Outcome codes: Y (active), N (inactive)

[[record]]
molecule = "Nc1ccc(Cl)c(Cl)c1"
label = "N"

[[record]]
molecule = "CC(C)C(=O)OCC(C)(C)C(OC(=O)C(C)C)C(C)C (stereo unspecified)"
label = "N"

[[record]]
molecule = "c1nc[nH]n1"
label = "N"

[[record]]
molecule = "C[C@]12CCC(=O)C[C@@H]1CC[C@@H]1[C@@H]2CC[C@]2(C)[C@@H](O)CC[C@@H]12"
label = "N"

[[record]]
molecule = "NNC(=S)NN"
label = "N"

[[record]]
molecule = "CCN(N=O)C(N)=O"
label = "N"

[[record]]
molecule = "C1=Cc2cccc3cccc1c23"
label = "N"

[[record]]
molecule = "CC(C)NC(C)C"
label = "N"

[[record]]
molecule = "CCCCCCCCCCCOC(=O)c1ccccc1C(=O)OCCCCCCCCCCC"
label = "N"

[[record]]
molecule = "Nn1cnnc1"
label = "N"

[[record]]
molecule = "CCOC(=O)C(C)OC(=O)c1cc(Oc2ccc(C(F)(F)F)cc2Cl)ccc1[N+](=O)[O-] (stereo unspecified)"
label = "N"

[[record]]
molecule = "N#CC(Br)Br"
label = "N"

[[record]]
molecule = "N#Cc1cc(Br)c(O)c(Br)c1"
label = "N"

[[record]]
molecule = "CCCCCc1cc(O)cc(O)c1"
label = "N"

[[record]]
molecule = "CC(C)(OOC(C)(C)c1ccccc1)c1ccccc1"
label = "N"

[[record]]
molecule = "O=Cc1ccco1"
label = "N"

[[record]]
molecule = "OCC(O)CO"
label = "N"

[[record]]
molecule = "CCC(C)(c1ccc(O)cc1)c1ccc(O)cc1"
label = "N"

[[record]]
molecule = "CC(C)=CC1C(C(=O)OCc2coc(Cc3ccccc3)c2)C1(C)C (stereo unspecified)"
label = "N"

[[record]]
molecule = "Oc1cc(Cl)ccc1Cl"
label = "N"

[[record]]
molecule = "NCc1cccnc1"
label = "N"

[[record]]
molecule = "COc1ccc(C(CN(C)C)C2(O)CCCCC2)cc1 (stereo unspecified)"
label = "N"

[[record]]
molecule = "O=P(Oc1ccccc1)(Oc1ccccc1)Oc1ccccc1"
label = "N"

[[record]]
molecule = "O=P(O)(O)CCCl"
label = "N"

[[record]]
molecule = "Cc1cc(Cl)ccc1OCCCC(=O)O"
label = "N"

[[record]]
molecule = "CC(C)(C)c1ccccc1O"
label = "N"

[[record]]
molecule = "Clc1nc(Cl)nc(Cl)n1"
label = "N"

[[record]]
molecule = "COc1ccc(C=O)cc1"
label = "N"

[[record]]
molecule = "CNC(=O)N(C)c1nnc(C(C)(C)C)s1"
label = "N"

[[record]]
molecule = "CCCCC(CC)COC(=O)c1ccc(C(=O)OCC(CC)CCCC)c(C(=O)OCC(CC)CCCC)c1 (stereo unspecified)"
label = "N"

[[record]]
molecule = "CCCCCCOC(=O)c1ccccc1C(=O)OCCCCCC"
label = "N"

[[record]]
molecule = "CNC(=O)Oc1cccc2c1OC(C)(C)O2"
label = "N"

[[record]]
molecule = "Nc1ccc(-c2ccccc2)cc1"
label = "N"

[[record]]
molecule = "Nc1ccc(Cl)cc1N"
label = "N"

[[record]]
molecule = "C=CCc1ccc2c(c1)OCO2"
label = "N"

[[record]]
molecule = "CCC(C)(C)c1ccc(O)cc1"
label = "N"

[[record]]
molecule = "Nc1c(Cl)cc([N+](=O)[O-])cc1Cl"
label = "N"

[[record]]
molecule = "Oc1c(Cl)c(Cl)c(Cl)c(Cl)c1Cl"
label = "N"

[[record]]
molecule = "Nc1ccncc1"
label = "N"

[[record]]
molecule = "C=CCc1ccc(OC)cc1"
label = "N"

[[record]]
molecule = "CC(C)Oc1cc(-n2nc(C(C)(C)C)oc2=O)c(Cl)cc1Cl"
label = "Y"

